The reported numbers originate from patent US8029764B2.

Test system: colorectal tissue transcripts
Test: SAGE of normal, adenoma and cancer colorectal tissue (transcript tag counts)
Set-up: species or system human
Conditions: cancer library 2
Answer False if CA2 (SAGE tag count) is under 1, and True if it is 1 or more.

biosequence="TTCTGGTGCG (chemistry not fully specified)" system="colorectal tissue transcripts" classification=False
biosequence="TTTCTCGTCG (chemistry not fully specified)" system="colorectal tissue transcripts" classification=True

Enquiry: Dear colleague, could you confirm whether TGGCCATCTG (chemistry not fully specified) has CA2 (SAGE tag count) at or above 1?
Return: True

Enquiry: Item TTTCCTCTCA (chemistry not fully specified) with CA2 (SAGE tag count) of 1 or above?
Return: True

---

Test system: colorectal tissue transcripts
Assay: SAGE of normal, adenoma and cancer colorectal tissue (transcript tag counts)
Design: species or system human
Conditions: SAGE library AD2
RESULT_TYPE: AD2 (SAGE tag count)
// no unit string in output, number only

Here is how some sequences turned out for AD2 (SAGE tag count).
biosequence="GTGGTGGCAG (chemistry not fully specified; the letters are possibly those of the target site)" result=1
biosequence="ACTGTGGCGG (chemistry not fully specified)" result=12
biosequence="CCCGCCTCTT (chemistry not fully specified)" result=3
biosequence="CTGGCTATCC (chemistry not fully specified)" result=0
biosequence="AGAATAGCTT (chemistry not fully specified)" result=9

The record that follows has no AD2 (SAGE tag count) shown yet.
Form field, AD2 (SAGE tag count) with colorectal tissue transcripts, item CCTGTCTGCC (chemistry not fully specified) : 1

---

Tested on: colorectal tissue transcripts
Test: SAGE of normal, adenoma and cancer colorectal tissue (transcript tag counts)
Set-up: species or system human
Details: SAGE library AD1
RESULT_TYPE: AD1 (SAGE tag count)
Please give only the number in your answer, with no unit.

biosequence="CTGGCTATCC (chemistry not fully specified)" system="colorectal tissue transcripts" result=0
biosequence="GCCGGGTGGG (chemistry not fully specified)" system="colorectal tissue transcripts" result=18
biosequence="GGGAAGCAGA (chemistry not fully specified)" system="colorectal tissue transcripts" result=18
biosequence="GTGCCTGAGA (chemistry not fully specified)" system="colorectal tissue transcripts" result=2
biosequence="CGGGAGTCGG (chemistry not fully specified)" system="colorectal tissue transcripts" result=13
biosequence="ACCCAACTGC (chemistry not fully specified)" system="colorectal tissue transcripts" result=0
biosequence="ATGGCACGGA (chemistry not fully specified; the letters are possibly those of the target site)" system="colorectal tissue transcripts" result=1
biosequence="GTGGTGGCAG (chemistry not fully specified; the letters are possibly those of the target site)" system="colorectal tissue transcripts" result=1

Recorded result, GATCCCAACT (chemistry not fully specified) , AD1 (SAGE tag count): 5

Entry GTGGCGGGAA (chemistry not fully specified) , AD1 (SAGE tag count) reported as 1

Item: ATGACGCTCA (chemistry not fully specified) | AD1 (SAGE tag count): 6

response.value for GTCCGAGTGC (chemistry not fully specified) (field: AD1 (SAGE tag count)) = 0

According to the records, this sequence CTGGCAAAGG (chemistry not fully specified) displays AD1 (SAGE tag count) of 1

Reported AD1 (SAGE tag count) ( GCAGGAGGTG (chemistry not fully specified; the letters are possibly those of the target site) ) = 0

---

System: colorectal tissue transcripts
Assay: SAGE of normal, adenoma and cancer colorectal tissue (transcript tag counts)
Set-up: species or system human
Settings: normal colorectal tissue library 1
RESULT_TYPE: NC1 (SAGE tag count)
Form rule: numeric answer, no unit written next to it.

Completed entries (count: 3):
biosequence="TTCCGCGTTC (chemistry not fully specified)" system="colorectal tissue transcripts" result_type="NC1 (SAGE tag count)" result=5
biosequence="TGGCTACTTA (chemistry not fully specified)" system="colorectal tissue transcripts" result_type="NC1 (SAGE tag count)" result=6
biosequence="TTCTGTAGCC (chemistry not fully specified)" system="colorectal tissue transcripts" result_type="NC1 (SAGE tag count)" result=13

// recorded NC1 (SAGE tag count) for TCACCGGTCA (chemistry not fully specified) : 118

// sample TACGGTGTGG (chemistry not fully specified) , its NC1 (SAGE tag count) was 7

Summary for this sequence, TGATCTCTGT (chemistry not fully specified) : NC1 (SAGE tag count) is 6

Noted for TTTTCTGCAT (chemistry not fully specified) : its NC1 (SAGE tag count) reads 8

Please fill in: NC1 (SAGE tag count) reported for TTCCACTAAC (chemistry not fully specified) = 29

Lab note: measured NC1 (SAGE tag count) of TGCCGCCCGC (chemistry not fully specified) was 14

Documented NC1 (SAGE tag count) of TGCTCCTACC (chemistry not fully specified; the letters are possibly those of the target site) : 140

get_value(item= TCTGAATTAT (chemistry not fully specified) , readout=NC1 (SAGE tag count)) returns 24

Lab note: measured NC1 (SAGE tag count) of TACTCGGCCA (chemistry not fully specified) was 10

Data point: TAATTTGCAT (chemistry not fully specified) ; NC1 (SAGE tag count) = 25

In plain terms, TTTCCTCTCA (chemistry not fully specified) has a documented NC1 (SAGE tag count) of 21

Given item TGGCGCGTGT (chemistry not fully specified) , the value recorded as its NC1 (SAGE tag count) is 25

For TTATGGTGTG (chemistry not fully specified) the sequence record lists NC1 (SAGE tag count) as 11

---

Tested on: colorectal tissue transcripts
Experiment: SAGE of normal, adenoma and cancer colorectal tissue (transcript tag counts)
Design: species or system human
Settings: cancer library 1
RESULT_TYPE: CA1 (SAGE tag count)
# output: bare number, no unit

biosequence="TTCTGTAGCC (chemistry not fully specified)" system="colorectal tissue transcripts" result_type="CA1 (SAGE tag count)" result=4
biosequence="TGGGGAGAGG (chemistry not fully specified)" system="colorectal tissue transcripts" result_type="CA1 (SAGE tag count)" result=3
biosequence="TACTGTGGAT (chemistry not fully specified)" system="colorectal tissue transcripts" result_type="CA1 (SAGE tag count)" result=2
biosequence="TTTAACGGCC (chemistry not fully specified)" system="colorectal tissue transcripts" result_type="CA1 (SAGE tag count)" result=11
biosequence="TAATCCCAGC (chemistry not fully specified)" system="colorectal tissue transcripts" result_type="CA1 (SAGE tag count)" result=16

CA1 (SAGE tag count) recorded for this sequence, TTCCACTAAC (chemistry not fully specified) , is 5

The sequence TAGGATGGGG (chemistry not fully specified) showed CA1 (SAGE tag count) equal to 6

// field: CA1 (SAGE tag count); key: TACGGTGTGG (chemistry not fully specified) ; value = 1

GET /value?item= TTAACCCCTC (chemistry not fully specified) &field=CA1 (SAGE tag count) returns 1

So, TGCAGCGCCT (chemistry not fully specified; the letters are possibly those of the target site) ? Its CA1 (SAGE tag count) was 1

---

Tested on: colorectal tissue transcripts
Assay: SAGE of normal, adenoma and cancer colorectal tissue (transcript tag counts)
Parameters: species or system human
Details: SAGE library NC2
Listing: NC2 (SAGE tag count) of selected sequences
// keep it numeric: no unit symbol after the value

Below are worked cases with known answers.
biosequence="GGCTGCCTGC (chemistry not fully specified)" system="colorectal tissue transcripts" result=11
biosequence="ACAGGGTGAC (chemistry not fully specified)" system="colorectal tissue transcripts" result=13
biosequence="CTTCTTGCCC (chemistry not fully specified)" system="colorectal tissue transcripts" result=2

Briefly, NC2 (SAGE tag count) measured for CTAGCCTCAC (chemistry not fully specified) : 90

Kindly note the recorded NC2 (SAGE tag count) for GGCCCTGCAG (chemistry not fully specified) , which is 7

Record GCAGCTCCTG (chemistry not fully specified) . Reported NC2 (SAGE tag count): 47

Short answer for GGAACAGGGG (chemistry not fully specified) : NC2 (SAGE tag count) was 13

Form: sequence = CGTGGGTGGG (chemistry not fully specified) ; NC2 (SAGE tag count) = 10

---

System: colorectal tissue transcripts
Test: SAGE of normal, adenoma and cancer colorectal tissue (transcript tag counts)
Set-up: species or system human
Conditions: SAGE library CA2
Procedure: In an effort to identify potential molecular markers of early colorectal tumors, we have here analyzed gene expression in benign and malignant colorectal tumors in an unbiased and comprehensive fashion. […] The abundance of each tag provides a quantitative measure of the transcript level present within the mRNA population studied. […] For the current study, SAGE libraries derived from two samples of normal colonic epithelium, two colorectal adenomas, and two colorectal cancers were analyzed. […]
Label t when CA2 (SAGE tag count) >= 1; otherwise f.

biosequence="CTTATGGTCC (chemistry not fully specified)" classification=f
biosequence="GCGAAACTCG (chemistry not fully specified)" classification=f
biosequence="ACCTGGGGAG (chemistry not fully specified)" classification=t
biosequence="ACATTGGGTG (chemistry not fully specified)" classification=t
biosequence="ATGCGGGAGA (chemistry not fully specified)" classification=t
biosequence="GGAACTGTGA (chemistry not fully specified)" classification=t

Enquiry: Reported CA2 (SAGE tag count) at or above 1? GCCCAGGTCA (chemistry not fully specified)
Return: t

Enquiry: Hello, I need to know if GCCGTGGAGA (chemistry not fully specified) has measured CA2 (SAGE tag count) not below 1. Thanks!
Return: t

Enquiry: Exam item: decide whether the reported CA2 (SAGE tag count) for GCTTGGGGAT (chemistry not fully specified) is at least 1.
Return: f
